target: Bile salt export pump (Homo sapiens)
// values below are reported pIC50
Just the number, please; pIC50 means minus log10 of the concentration in mol/L.

Some entries whose results are on file:
>>> value_observed("COC(=O)[C@@H]1[C@H]2C[C@H]3c4[nH]c5ccccc5c4CCN3C[C@@H]2CC[C@@H]1O [YOHIMBINE]")
3.60
>>> value_observed("C[C@]12CC[C@H]3[C@@H](CCC4=CC(=O)CC[C@@]43C)[C@@H]1CC[C@@H]2C(=O)CO [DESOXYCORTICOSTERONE]")
4.77
>>> value_observed("CC(=O)c1ccc2c(c1)N(CCCN(C)C)c1ccccc1S2 [ACEPROMAZINE]")
3.95

stdin: Notebook entry, Bile salt export pump (Homo sapiens) assay: pIC50 of CCCc1c2c(cc3c(=O)cc(C(=O)O)oc13)CCCC2 [PROCROMIL] = ?
stdout: 3.22

stdin: Notebook entry, Bile salt export pump (Homo sapiens) assay: pIC50 of CCN1CCCC1CNC(=O)c1cc(S(N)(=O)=O)ccc1OC (centres undefined) [SULPIRIDE] = ?
stdout: 3.56

* * *

molecular target: Bile salt export pump (Homo sapiens)
value type: pIC50
Just the number, please; pIC50 means minus log10 of the concentration in mol/L.

>>> value_observed("Cc1cccc(Nc2ccncc2S(=O)(=O)NC(=O)NC(C)C)c1 [TORSEMIDE]")
3.88
>>> value_observed("CCN(CC)Cc1cc(Nc2ccnc3cc(Cl)ccc23)ccc1O")
4.11
>>> value_observed("CC(Cc1ccccc1)(NC(=O)CN)c1ccccc1 (centres undefined) [REMACEMIDE]")
3.54

// next entry
stdin: Item under review: "CCCCOc1cc(C(=O)NCCN(CC)CC)c2ccccc2n1" . Reported pIC50?
stdout: 4.38

* * *

target: Bile salt export pump (Homo sapiens, UniProt O95342)
Sequence (O95342 whole entry): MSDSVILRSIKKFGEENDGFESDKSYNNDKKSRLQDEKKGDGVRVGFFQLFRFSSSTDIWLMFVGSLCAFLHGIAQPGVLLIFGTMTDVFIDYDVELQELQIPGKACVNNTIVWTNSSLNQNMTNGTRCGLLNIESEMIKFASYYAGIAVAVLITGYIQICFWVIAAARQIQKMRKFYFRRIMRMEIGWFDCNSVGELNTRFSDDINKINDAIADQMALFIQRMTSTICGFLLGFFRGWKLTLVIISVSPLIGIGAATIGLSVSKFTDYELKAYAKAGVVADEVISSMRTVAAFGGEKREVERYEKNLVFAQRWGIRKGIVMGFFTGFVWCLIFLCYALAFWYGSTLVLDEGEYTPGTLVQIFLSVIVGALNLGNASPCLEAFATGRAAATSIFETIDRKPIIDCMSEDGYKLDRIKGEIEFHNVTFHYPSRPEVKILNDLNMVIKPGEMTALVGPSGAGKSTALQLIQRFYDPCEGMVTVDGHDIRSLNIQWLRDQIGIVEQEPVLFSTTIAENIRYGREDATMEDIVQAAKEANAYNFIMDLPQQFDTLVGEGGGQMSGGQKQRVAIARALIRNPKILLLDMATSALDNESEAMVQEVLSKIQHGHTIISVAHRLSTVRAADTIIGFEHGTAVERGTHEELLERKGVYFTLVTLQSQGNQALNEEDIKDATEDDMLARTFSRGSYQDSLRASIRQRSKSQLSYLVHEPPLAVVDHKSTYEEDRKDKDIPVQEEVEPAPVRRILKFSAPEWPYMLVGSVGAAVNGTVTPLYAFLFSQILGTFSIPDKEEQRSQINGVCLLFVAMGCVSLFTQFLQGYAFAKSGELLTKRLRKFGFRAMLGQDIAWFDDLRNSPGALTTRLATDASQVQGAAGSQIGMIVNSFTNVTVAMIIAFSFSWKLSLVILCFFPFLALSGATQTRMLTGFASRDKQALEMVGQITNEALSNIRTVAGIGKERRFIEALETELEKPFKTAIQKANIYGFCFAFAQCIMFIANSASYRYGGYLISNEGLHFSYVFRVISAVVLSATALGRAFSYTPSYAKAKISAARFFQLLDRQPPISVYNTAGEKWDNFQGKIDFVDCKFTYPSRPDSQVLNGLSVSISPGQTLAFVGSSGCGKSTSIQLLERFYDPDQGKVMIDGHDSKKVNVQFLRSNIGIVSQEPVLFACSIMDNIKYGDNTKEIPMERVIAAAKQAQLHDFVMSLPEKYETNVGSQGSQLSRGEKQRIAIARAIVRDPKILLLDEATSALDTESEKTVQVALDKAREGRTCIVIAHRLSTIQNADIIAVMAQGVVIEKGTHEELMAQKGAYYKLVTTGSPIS
Structures can show the parent of a compound that is named as a salt.
value type: IC50

Some entries whose results are on file:
>>> value_observed("O=c1ncn2nc(Sc3ccc(F)cc3F)ccc2c1-c1c(Cl)cccc1Cl [NEFLAMAPIMOD]")
"< 10 µM"
>>> value_observed("Cc1ccc(NC(=O)c2ccc(CN3CCN(C)CC3)cc2)cc1Nc1nccc(-c2cccnc2)n1 [IMATINIB]")
"< 10 µM"
>>> value_observed("OCCOCCN1CCN(C(c2ccccc2)c2ccc(Cl)cc2)CC1 (stereo not drawn) [HYDROXYZINE]")
"72.9 µM"
>>> value_observed("CCOC(=O)c1cncn1[C@H](C)c1ccccc1 [ETOMIDATE]")
"61.6 µM"
>>> value_observed("CC1(C)OC(=O)NC1=O [DIMETHADIONE]")
"> 1000 µM"

stdin: Notebook entry, Bile salt export pump (Homo sapiens, UniProt O95342) assay: IC50 of Cc1nnc(NS(=O)(=O)c2ccc(N)cc2)s1 [SULFAMETHIZOLE] = ?
stdout: > 1000 µM

stdin: Notebook entry, Bile salt export pump (Homo sapiens, UniProt O95342) assay: IC50 of "CC(=O)NC[C@H]1CN(c2ccc(C(=O)c3cnc4ccc(Cl)cn34)cc2)C(=O)O1" = ?
stdout: 27.6 µM

stdin: Notebook entry, Bile salt export pump (Homo sapiens, UniProt O95342) assay: IC50 of Cc1ccc(C(=O)c2cc(O)c(O)c([N+](=O)[O-])c2)cc1 [TOLCAPONE] = ?
stdout: < 33.9 µM

stdin: Notebook entry, Bile salt export pump (Homo sapiens, UniProt O95342) assay: IC50 of CC(=O)Oc1ccc(C(c2ccc(OC(C)=O)cc2)c2ccccn2)cc1 [BISACODYL] = ?
stdout: 56.4 µM

stdin: Notebook entry, Bile salt export pump (Homo sapiens, UniProt O95342) assay: IC50 of CC(C)[N+](C)(CCOC(=O)C1c2ccccc2Oc2ccccc21)C(C)C [PROPANTHELINE BROMIDE] = ?
stdout: 291 µM

stdin: Notebook entry, Bile salt export pump (Homo sapiens, UniProt O95342) assay: IC50 of CCCc1c2nc(C(=O)O)cc(NC)c2cc2c(=O)cc(C(=O)O)oc12 [MINOCROMIL] = ?
stdout: > 1000 µM

stdin: Notebook entry, Bile salt export pump (Homo sapiens, UniProt O95342) assay: IC50 of CC(Cc1ccc2c(c1)OCO2)NCC(O)c1ccc(O)c(O)c1 (stereo not drawn) [PROTOKYLOL HYDROCHLORIDE] = ?
stdout: > 982 µM

stdin: Notebook entry, Bile salt export pump (Homo sapiens, UniProt O95342) assay: IC50 of O=C(O)c1c(Cl)c(Cl)c(Cl)c(Cl)c1-c1c2cc(I)c(=O)c(I)c-2oc2c(I)c(O)c(I)cc12 [ROSE BENGAL SODIUM] = ?
stdout: < 10 µM

stdin: Notebook entry, Bile salt export pump (Homo sapiens, UniProt O95342) assay: IC50 of CS(=O)(=O)c1ccc(C2=C(c3ccccc3)C(=O)OC2)cc1 [ROFECOXIB] = ?
stdout: 95.4 µM

stdin: Notebook entry, Bile salt export pump (Homo sapiens, UniProt O95342) assay: IC50 of CC(CNC1CCCCC1)OC(=O)c1ccccc1 (stereo not drawn) [HEXYLCAINE HYDROCHLORIDE] = ?
stdout: 506 µM

stdin: Notebook entry, Bile salt export pump (Homo sapiens, UniProt O95342) assay: IC50 of "CC(=O)Oc1ccc2c(c1)cc(C(=O)O)n2Cc1ccc(Cl)c(Cl)c1" = ?
stdout: 55.2 µM

stdin: Notebook entry, Bile salt export pump (Homo sapiens, UniProt O95342) assay: IC50 of CN1[C@@H]2C[C@@H](OC(=O)[C@H](CO)c3ccccc3)C[C@H]1[C@@H]1O[C@@H]12 [SCOPOLAMINE] = ?
stdout: > 1000 µM

stdin: Notebook entry, Bile salt export pump (Homo sapiens, UniProt O95342) assay: IC50 of "NS(=O)(=O)c1ccc(-c2ccc(OC[C@H](O)CCc3cccnc3)cc2)s1" = ?
stdout: > 1000 µM
